Taken from the Immune Epitope Database (IEDB).

Molecular target: HLA-B*15:01
Assay: IEDB peptide-MHC binding, purified MHC/direct/fluorescence; filed as Kd, often an IC50 or EC50 that approximates it; bounds were set here for any values at or beyond the usual limits of such assays
Settings: source organism: Coxiella burnetii
pKd: −log10 of the molar value.
testReadout: pKd

1. SYGNANVSF = 5.94

====

Target: HLA-A*31:01
Assay: IEDB peptide-MHC binding, purified MHC/competitive/fluorescence; filed as Kd, often an IC50 or EC50 that approximates it; bounds were set here for any values at or beyond the usual limits of such assays
Details: source organism: Escherichia coli O157:H7 str. Sakai
pKd: −log10 of the molar value.
testReadout: pKd

1. MIYMGLWLK = 6.86
